assayed target: Homeobox protein Hox-A13 (Mus musculus)
test: inhibitors of HoxA13-DNA binding, primary screen, biochemical, fluorescence polarization, labeled oligonucleotide (AID 1185)
measurement context: 15 min, higher = more signal, called active from +8 up or from −8 down
Record TRUE whenever z-score is at -5 or higher; record FALSE when lower.

Here are 3 molecules together with their reported answers.
COc1cccc([C@H]2Oc3ccc(OC)cc3C(=NO[C@@H]3O[C@H](COC(C)=O)[C@@H](OC(C)=O)[C@H](OC(C)=O)[C@H]3OC(C)=O)[C@@H]2O)c1 : FALSE
O=C(C=Cc1ccc2c(c1)OCO2)c1ccc(F)cc1 : TRUE
Cc1cc2c(nc1C)CCCCN2CC(C)ON=C[C@@H](C)[C@H](OCc1ccccc1)C(C)C (some centres not stated) : TRUE

Could you tell me if the measured z-score of COC(=O)CC=C[C@@H](C)[C@@H](C=NOCC[C@@H]1C=C[C@H](OC(C)=O)[C@@H](COC(C)=O)O1)NS(=O)(=O)c1ccc(C)cc1 reaches -5 or more? FALSE

Another molecule to look at: O=C1[C@H]2[C@H]3[C@H](O)[C@H](O)CC(=NOCc4ccccc4)[C@H]3CC[C@H]2C(=O)N1Cc1ccc2c(c1)OCO2 TRUE

Again, but for CCOC(=O)[C@H](CC(C)C)NC(=O)CCC1CC(OC(=O)NCCc2ccc(F)cc2)CC2(CCCC(COC(=O)NCCOc3ccccc3)O2)O1 (some centres not stated) FALSE

What do we get for CO[C@H]1COC(=O)CC=C[C@H](C)COC(=O)[C@@H](C)NC(=O)CC=C[C@@H]1C ? TRUE

----------
So I've got a bunch of compounds here, and I need their composite z-score values.
test: small-molecule microarray binders of probe aEGFR, primary screen, biochemical, biotinylated probe, 635/667 nm fluorescence (AID 1097);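 note: probe is a biotinylated anti-EGFR antibody binding compounds printed on slides; score combines fluorescence near 667 nm and signal to noise of each spot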
measurement context: higher = more signal
Answers are plain numbers.

Look over these answered cases.
CC(C)=CCCC(C)=CCON=C1C[C@@H](O)[C@@H](O)[C@@H]2[C@@H]3C(=O)N(Cc4ccccc4)C(=O)[C@@H]3CC[C@@H]12 : 0.012
CC(=O)OC[C@H]1O[C@H](CC=NO[C@H](C)c2cn([C@H](CO)Cc3ccccc3)nn2)C=C[C@@H]1OC(C)=O : 0.009
CCOC(=O)[C@H](Cc1ccccc1)NC(=O)CCC1CC(OC(=O)NCc2cccc3ccccc23)CC2(CCCC(COC(=O)NCCC(C)C)O2)O1 (some centres undefined) : -0.128

We next turn to a different compound, shown below.
Record request: composite z-score value, item C[C@@H]1CC[C@H]2C(=O)O[C@@H](Cc3ccccc3)CN2[C@H]1c1ccc(Br)cc1 -0.0485

----------
test: P. aeruginosa biofilm formation inhibitors, primary screen, strain PAO1, LB-PBS medium, absorbance 600 nm (AID 1176); note: test concentration not given here
measurement context: P. aeruginosa PAO1 growth/biofilm, A600, 12 h; higher = more signal
Give measured z-score for each item. Keep answers brief.
One number for each entry.

In the examples that follow, each entry is paired with its recorded z-score.
CCCCc1nc2c(c3c1C[C@H](C)OC3)CN(CCOc1ccccc1)CC2 : 1.1
CC(C)(C)N1C(=O)[C@H]2[C@H]3[C@H](O)[C@H](O)CC(=O)[C@H]3CC[C@H]2C1=O : -0.908
CC[C@@H](c1ccccc1)n1c(=O)n2n(c1=O)[C@H]1[C@H](O)[C@@H]3O[C@@H]3C(=NOC[C@@H](O)COCc3ccco3)[C@H]1CC2 : -0.613
Cc1cc2c(nc1C)CCCN2CC(O)CN1CCCc2nc(C)c(C)cc21 : 0.979
CC(C)=CCCC(C)=CCON=C1C[C@@H](O)[C@@H](O)[C@@H]2[C@@H]3C(=O)N(C4CCCCC4)C(=O)[C@@H]3CC[C@@H]12 : 0.565
CON=CC[C@@H]1C=C[C@H](OC(C)=O)[C@@H](COC(C)=O)O1 : -0.0903

List the reported z-score of each compound below.
1. COC(=O)CC=C[C@@H](C)[C@@H](C=NOC[C@H]1O[C@H](c2ccccc2)C=C[C@@H]1Oc1ccc(OC)cc1)OC
2. CO[C@H]1COC(=O)[C@H](C)NC(=O)[C@@H](C)COC(=O)[C@H]2CCCN2C(=O)CC=C[C@H]1C

[0.335, -0.655]

Provide z-score for all items below, preserving their order.
1. C[C@@H](c1ccccc1)N1C(=O)[C@H]2[C@H]3[C@H](O)[C@H](O)CC(=NO[C@@H]4O[C@H](CO)[C@@H](O)[C@H](O)[C@H]4O)[C@@H]3CC[C@H]2C1=O
2. O=C1[C@H]2[C@H]3[C@H](O)[C@H](O)CC(=NOC[C@@H](O)COCc4ccco4)[C@H]3CC[C@H]2C(=O)N1C[C@@H]1CCCO1

1. 0.14
2. 0.07

The reported measurements were obtained from PubChem BioAssay.
